# Experimental system: T1, cynomolgus monkey IL-21R expressed on cells (cynomolgus monkey, UniProt G7Q0S8 41-559)
# T1 construct: whole, on cells
# Measurement protocol: cell-based ELISA on CHO cells transiently expressing cynomolgus monkey IL-21R; HRP anti-human IgG, A450
Please respond with reported EC50 (read off the curve) for every item in the list.

Bench note: what EC50 (read off the curve) did AbB (antibody, IgG1, V domains shown, As for AbA: IgG1/lambda, CDR3 graft, residue limits derived; also called VHP/VL3) VH: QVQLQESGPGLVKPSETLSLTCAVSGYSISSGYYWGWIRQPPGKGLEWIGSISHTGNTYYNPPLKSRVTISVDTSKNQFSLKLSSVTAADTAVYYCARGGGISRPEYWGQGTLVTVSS VL: SSELTQDPAVSVALGQTVRITCQGDSLRTYYASWYQQKPGQAPVLVIYGKHKRPSGIPDRFSGSSSGNTASLTITGAQAEDEADYYCVSRAVVGNPHVLFGGGTQLTVL show? ~0.6 nM

What do you have for AbQ (antibody, human IgG1, V domains shown, CDR3 graft, residue limits derived as for m29; also called VH3/VL2; VH3DM/VL2) VH: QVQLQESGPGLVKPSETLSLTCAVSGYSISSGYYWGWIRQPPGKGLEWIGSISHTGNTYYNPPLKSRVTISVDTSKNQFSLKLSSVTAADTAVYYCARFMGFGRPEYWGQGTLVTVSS VL: SSELTQDPAVSVALGQTVRITCQGDSLRTYYASWYQQKPGQAPVLVIYGKHKRPSGIPDRFSGSSSGNTASLTITGAQAEDEADYYCVARSVVGNPHVLFGGGTQLTVL ? ~0.7 nM

What do you have for AbM (antibody, IgG1, V domains shown, As for AbA: IgG1/lambda, CDR3 graft, residue limits derived; also called VH6/VL13) VH: QVQLQESGPGLVKPSETLSLTCAVSGYSISSGYYWGWIRQPPGKGLEWIGSISHTGNTYYNPPLKSRVTISVDTSKNQFSLKLSSVTAADTAVYYCARFFGFGRPEYWGQGTLVTVSS VL: SSELTQDPAVSVALGQTVRITCQGDSLRTYYASWYQQKPGQAPVLVIYGKHKRPSGIPDRFSGSSSGNTASLTITGAQAEDEADYYCVTRNRYGNPHVLFGGGTQLTVL ? ~3 nM

What do you have for AbG (antibody, IgG1, V domains shown, As for AbA: IgG1/lambda, CDR3 graft, residue limits derived; also called VHP/VL18) VH: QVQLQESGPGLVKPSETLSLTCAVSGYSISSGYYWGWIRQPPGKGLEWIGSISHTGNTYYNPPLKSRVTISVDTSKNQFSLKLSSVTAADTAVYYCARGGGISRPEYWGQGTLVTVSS VL: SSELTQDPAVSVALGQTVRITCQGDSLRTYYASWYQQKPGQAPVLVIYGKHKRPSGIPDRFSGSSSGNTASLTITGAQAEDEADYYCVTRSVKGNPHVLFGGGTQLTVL ? ~0.5 nM

What do you have for AbT (antibody, human IgG1, V domains shown, CDR3 graft, residue limits derived as for m29; also called VHP/VL9; VHPTM/VL9) VH: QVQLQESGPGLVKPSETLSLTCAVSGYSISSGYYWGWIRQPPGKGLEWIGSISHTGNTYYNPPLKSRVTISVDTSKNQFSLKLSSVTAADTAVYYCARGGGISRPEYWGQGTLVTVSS VL: SSELTQDPAVSVALGQTVRITCQGDSLRTYYASWYQQKPGQAPVLVIYGKHKRPSGIPDRFSGSSSGNTASLTITGAQAEDEADYYCVARSNKGNPHVLFGGGTQLTVL ? ~0.6 nM

Reference source: patent US20120276102A1
